- Tested on: Haemonchus contortus
- Experiment: Test B: Haemonchus contortus burdens in orally infected mice after gavage of test compound
- Type: in vivo
- Applied Conditions: mice infected orally with 600 L3 Haemonchus contortus larvae; gavage 10.0 mg/kg on day 0; burdens on day 5 relative to vehicle-dosed controls
I'd appreciate it if you marked entries true when % Efficacy is lower than 70% and false when it is not.

O=S(=O)(NCc1ccnc2ccccc12)c1ccc(C(F)c2ccccc2)cc1 (racemic) = false
COC(=O)c1ccc(Oc2ccc(S(=O)(=O)NCc3ccnc4ccccc34)cc2)c(Cl)c1 = false
O=S(=O)(NCc1ccnc2ccccc12)c1ccc(OCc2ccc(Cl)cc2Cl)cc1 = true
O=S(=O)(NCc1ccnc2ccccc12)c1ccc(C#Cc2ccccc2)cc1 = true
O=S(=O)(NCc1ccnc2ccccc12)c1ccc(Cc2ccc(F)cc2F)cc1 = false
N#Cc1cccc(Oc2ccc(S(=O)(=O)NCc3ccnc4ccccc34)cc2)c1 = true
N#Cc1c(Cl)cccc1Oc1ccc(S(=O)(=O)NCc2ccnc3ccccc23)cc1 = false
O=S(=O)(NCc1ccnc2ccccc12)c1ccc(Nc2ccccc2)cc1 = false
N#Cc1cc(Br)ccc1Oc1ccc(S(=O)(=O)NCc2ccnc3ccccc23)cc1 = true
O=S(=O)(NCc1ccnc2ccccc12)c1ccc(Cc2ccc(F)cc2)cc1 = false
O=S(=O)(NCc1ccnc2ccccc12)c1ccc(Cc2ccccc2F)cc1 = false
O=C(Nc1ccc(S(=O)(=O)NCc2ccnc3ccccc23)cc1)c1ccccc1 = true
O=S(=O)(NCc1ccnc2ccccc12)c1cccc(Cc2ccc(F)cc2)c1 = false
CNC(=O)c1ccc(Oc2ccc(S(=O)(=O)NCc3ccnc4ccccc34)cc2)cc1 = false
O=S(=O)(NCc1ccnc2ccccc12)c1ccc(C#Cc2ccccc2)s1 = true
O=C(Nc1ccc(S(=O)(=O)NCc2ccnc3ccccc23)cc1)c1ccccc1Cl = false
O=S(=O)(NCc1ccnc2ccccc12)c1ccc(CCc2ccccc2)cc1 = false
COc1ccccc1C(=O)Nc1ccc(S(=O)(=O)NCc2ccnc3ccccc23)cc1 = false
O=S(=O)(NCc1ccnc2ccccc12)c1ccc(Cc2ccccc2)s1 = false

====

- System: Haemonchus contortus
- Experiment: Test B: Haemonchus contortus burdens in orally infected mice after gavage of test compound
- Format: in vivo
- Applied Conditions: mice infected orally with 600 L3 Haemonchus contortus larvae; gavage 10.0 mg/kg on day 0; burdens on day 5 relative to vehicle-dosed controls
Each entry below carries its reported % Efficacy.
Reported Property: % Efficacy (%)

O=S(=O)(NCc1ccnc2ccccc12)c1cccc(Cc2ccccc2)c1 = 70
N#Cc1ccc(Oc2ccc(S(=O)(=O)NCc3ccnc4ccccc34)cc2)cc1 = 72
O=S(=O)(NCc1ccnc2ccccc12)c1ccc(Cc2ccccc2)cc1 = 69
O=S(=O)(NCc1ccnc2ccccc12)c1ccc(COc2ccc(Cl)cc2)cc1 = 71
